# System: SW-620 colon
# MEASUREMENT_DESCRIPTION: NCI-60 one-dose screen, 48 h (100 = growth as untreated, 0 = no growth, -100 = all killed)
# TEST_SETTINGS: 10 µM unless noted
This is part of a sample that, as a whole, favours compounds with a hit. Of some 83,000 tested, about 20% had one in any assay. Calls of active or inactive are those of the source. The calls were made as follows: active = growth percent below 10; inactive = the rest.
In this section, each of the molecules is paired with its reported growth.

The cases that follow already have their growth on record.
- MOLECULE: "CCN(CC)CCSc1c2ccc(Cl)cc2nc2ccc(OC)cc12"
  growth: "4.29% (active)"
- MOLECULE: "COc1cc(-c2cc(/C=C3\\CCCCC3=O)[nH]n2)cc(OC)c1OC"
  growth: "101% (inactive)"
- MOLECULE: "CC[C@H](C)[C@@H]1NC(=O)[C@H]([C@@H](C)O)NC(=O)C(Cc2ccccc2)NC(=O)[C@@H]2CCCN2C(=O)C(C(C)C)NC(=O)C(Cc2ccccc2)NC(=O)CNC(=O)[C@@H]2CCCN2C1=O (stereo partly specified)"
  growth: "68.3% (inactive)"

Fill in the blank: the reported growth of O=C(Nc1ccc(F)c(Cl)c1)c1n[nH]c(=O)c2ccccc12 is ____. 107% (inactive)

Fill in the blank: the reported growth of CC(=O)Nc1nc(C(=O)N2N=C(C)/C(=C/c3cccs3)C2=O)cs1 is ____. 110% (inactive)

Fill in the blank: the reported growth of CC(C)[C@H](CO)Nc1nc(Nc2ccc(C(=O)NCCNS(=O)(=O)c3cccc4c(N(C)C)cccc34)c(Cl)c2)c2ncn(C(C)C)c2n1 is ____. 4.97% (active)

Fill in the blank: the reported growth of Cc1cc(N/C=c2\sc3ncnn3c2=O)no1 is ____. 98.8% (inactive)

Fill in the blank: the reported growth of COc1cccc(/C=C2\SC(N3CCN(c4ccccn4)CC3)=NC2=O)c1 is ____. 97.9% (inactive)

Fill in the blank: the reported growth of CCN1C(=S)N(CC)C2Nn3c(s/c(=C4\C(=O)N(C)c5ccccc54)c3=O)=NC21 (stereo unspecified) is ____. 41.1% (inactive)

Fill in the blank: the reported growth of Cc1ccnc2nc(C(=O)OCC(=O)Nc3ccc(-c4ccccc4)cc3)nn12 is ____. 109% (inactive)

Fill in the blank: the reported growth of O=c1[nH]c2ccccc2cc1-c1nnc(Cc2ccccc2)o1 is ____. 45% (inactive)

----------
# Tested on: NCI-H460 lung
# MEASUREMENT_DESCRIPTION: NCI-60 one-dose screen, 48 h (100 = growth as untreated, 0 = no growth, -100 = all killed)
# TEST_SETTINGS: 10 µM unless noted
# Protocol: Growth inhibition of the NCI-H460 human Non-Small Cell Lung tumor cell line is measured as a screen for anti-cancer activity. Cells are grown in 96 well plates and exposed to the test compound for 48 hours. Compounds are tested at a single concentration, which is 10^-5 M for most compounds. The reported endpoint is percent growth (GI% or GIPRCNT), where numbers from 0 - 100% represent growth inhibition, and numbers from -100% - 0 represent cell death. […]
The panel holds about 83,000 compounds, 20% with a hit somewhere; the sample as a whole holds those more often.
// criterion not met strictly below 80% in growth; criterion met otherwise

- COMPOUND: "COc1cccc2nc(Nc3ccc(NC(=O)c4ccc5ncccc5c4)cc3)ccc12"
  LABEL: "criterion met"

Check the entry C=CCc1cc(Cl)cc2c(OC(C)=O)c(C(C)=O)c(-c3ccccc3)nc12 : does growth equal or exceed 80%? criterion met

Check the entry CCNC(=O)CCCCC(=O)c1c(C)[nH]c(/C=C2\N=C(c3ccc[nH]3)C=C2OC)c1C : does growth equal or exceed 80%? criterion not met

Check the entry c1ccc2c(c1)Oc1ccccc1C2C1c2ccccc2Oc2ccccc21 : does growth equal or exceed 80%? criterion met

Check the entry COc1cccc(/C=C/c2c(C(=O)O)cccc2[N+](=O)[O-])c1OC : does growth equal or exceed 80%? criterion met

Check the entry COc1ccc(/C=C/C(=O)c2ccc(NC(=O)CN3CCN(c4cc5c(cc4F)c(=O)c(C(=O)O)cn5C4CC4)CC3)cc2)cc1 : does growth equal or exceed 80%? criterion met

Check the entry CC(=O)c1cc(C(=O)c2ccc3c(c2)Sc2ccccc2N3)c2cc(C)ccn12 : does growth equal or exceed 80%? criterion not met

Check the entry c1cc(-c2ccc3c(c2)OCO3)n2nccc2n1 : does growth equal or exceed 80%? criterion met

Check the entry COC(=O)[C@H]1[C@H](OC)[C@@H](OC(=O)/C=C/c2ccncc2)CC2CN3CCc4c([nH]c5cc(OC)ccc45)[C@@H]3C[C@@H]21 (some centres undefined) : does growth equal or exceed 80%? criterion met
